Let's look at some binders and their measured % receptor stimulation at 100 µM (cAMP AlphaScreen).
# test_system: mouse melanocortin-1 receptor (mouse, UniProt Q01727 1-315)
# Sequence (Q01727 whole entry): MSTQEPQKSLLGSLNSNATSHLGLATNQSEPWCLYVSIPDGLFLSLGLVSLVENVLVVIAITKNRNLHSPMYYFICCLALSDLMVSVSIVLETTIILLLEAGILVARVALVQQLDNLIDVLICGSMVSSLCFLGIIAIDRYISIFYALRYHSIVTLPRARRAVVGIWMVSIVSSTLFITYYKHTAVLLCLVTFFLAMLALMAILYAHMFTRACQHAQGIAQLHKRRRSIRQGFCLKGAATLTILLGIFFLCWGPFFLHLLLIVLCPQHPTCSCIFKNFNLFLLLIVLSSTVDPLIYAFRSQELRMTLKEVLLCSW
# method_description: cell-based or functional assay
Square brackets hold non-standard residues; d marks the D form. hPhe = N[C@@H](CCc1ccccc1)C(=O)O; Dap = NC[C@H](N)C(=O)O
Numeric answer only, unit % assumed.

The following binders have reported results that may help.
Request: Field request: % receptor stimulation at 100 µM (cAMP AlphaScreen) | item: cyclo(PRF[hPhe]NAF[dP]) [c[Pro-Arg-Phe-hPhe-Asn-Ala-Phe-DPro]]
Result: 35

Request: Field request: % receptor stimulation at 100 µM (cAMP AlphaScreen) | item: cyclo(PRF[hPhe]RSF[dP]) (SMILES N=C(N)NCCC[C@@H]1NC(=O)[C@H](CCc2ccccc2)NC(=O)[C@H](Cc2ccccc2)NC(=O)[C@H](CCCNC(=N)N)NC(=O)[C@@H]2CCCN2C(=O)[C@H]2CCCN2C(=O)[C@H](Cc2ccccc2)NC(=O)[C@H](CO)NC1=O) [c[Pro-Arg-Phe-hPhe-Arg-Ser-Phe-DPro]]
Result: 30

Request: Field request: % receptor stimulation at 100 µM (cAMP AlphaScreen) | item: cyclo(PRF[hPhe]RAF[dP]) (SMILES C[C@@H]1NC(=O)[C@H](CCCNC(=N)N)NC(=O)[C@H](CCc2ccccc2)NC(=O)[C@H](Cc2ccccc2)NC(=O)[C@H](CCCNC(=N)N)NC(=O)[C@@H]2CCCN2C(=O)[C@H]2CCCN2C(=O)[C@H](Cc2ccccc2)NC1=O) [c[Pro-Arg-Phe-hPhe-Arg-Ala-Phe-DPro]]
Result: 25

Request: Field request: % receptor stimulation at 100 µM (cAMP AlphaScreen) | item: cyclo(PRF[hPhe][Dap]SF[dP]) (SMILES N=C(N)NCCC[C@@H]1NC(=O)[C@@H]2CCCN2C(=O)[C@H]2CCCN2C(=O)[C@H](Cc2ccccc2)NC(=O)[C@H](CO)NC(=O)[C@H](CN)NC(=O)[C@H](CCc2ccccc2)NC(=O)[C@H](Cc2ccccc2)NC1=O) [c[Pro-Arg-Phe-hPhe-Dap-Ser-Phe-DPro]]
Result: 40

// below: % receptor stimulation at 100 µM (cAMP AlphaScreen) requested for another binder
Request: Field request: % receptor stimulation at 100 µM (cAMP AlphaScreen) | item: cyclo(PRF[hPhe]NSF[dP]) (SMILES N=C(N)NCCC[C@@H]1NC(=O)[C@@H]2CCCN2C(=O)[C@H]2CCCN2C(=O)[C@H](Cc2ccccc2)NC(=O)[C@H](CO)NC(=O)[C@H](CC(N)=O)NC(=O)[C@H](CCc2ccccc2)NC(=O)[C@H](Cc2ccccc2)NC1=O) [c[Pro-Arg-Phe-hPhe-Asn-Ser-Phe-DPro]]
Result: 40
